# target_desc: T1, BMP-10 (UniProt O95393 317-424)
# T1 sequence (looked up): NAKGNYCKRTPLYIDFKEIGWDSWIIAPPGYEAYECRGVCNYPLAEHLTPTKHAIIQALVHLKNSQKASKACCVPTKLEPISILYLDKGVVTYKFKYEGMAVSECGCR
# experimental_details: SPR (Biacore 8K), Fc protein captured on anti-human IgG, ligand injected
In this section we review reported Kd values for a set of binders.
Give the value, in units of nM, as a plain number.

Challenge: Which Kd is listed for ActRIIB-B1B4 (SEQ ID NO: 117) chimera-Fc protein (Fc fusion, Tested as chimera-Fc protein; not shown: linker (if any) and Fc domain) GRGEAETRECLFFNANWELERTNQSGLERCEGEQDKRLHCYASWRNSSGSIEIVKQGCWLDDFNCYDRQECVATEENPQVYFCCCEGNFCNERFTHLPEAGGPEVTYEPPPTAPT ?
Response given: 0.0761

Challenge: Which Kd is listed for ActRIIB-A7 (SEQ ID NO: 125) chimera-Fc protein (Fc fusion, Tested as chimera-Fc protein; not shown: linker (if any) and Fc domain) GRGEAETRECIYYNANWELERTNQSGLERCEGEQDKRLHCYASWRNSSGTIELVKKGCWLDDFNCYDRQECVATEENPQVYFCCCEGNMCNERFTHLPEAGGPEVTYEPPPTAPT ?
Response given: 0.00872

More entries:
Challenge: Which Kd is listed for ActRIIB-B1B7 (SEQ ID NO: 116) chimera-Fc protein (Fc fusion, Tested as chimera-Fc protein; not shown: linker (if any) and Fc domain) GRGEAETRECLFFNANWELERTNQSGLERCEGEQDKRLHCYASWRNSSGTIELVKKGCWLDDFNCYDRQECVATEENPQVYFCCCEGNFCNEKFSYFPEAGGPEVTYEPPPTAPT ?
Response given: 0.0156
